Hello, the source for this data is patent US20210380703A1, in case you need it.

- system-tested: T1, human ACVR2A (human, UniProt P27037 20-135, limits assumed); further: test concentration or dose not given here
- T1 construct: coated antigen of the initial ELISA; also called activin receptor, type II A
- T1 sequence (P27037 20-135 limits assumed): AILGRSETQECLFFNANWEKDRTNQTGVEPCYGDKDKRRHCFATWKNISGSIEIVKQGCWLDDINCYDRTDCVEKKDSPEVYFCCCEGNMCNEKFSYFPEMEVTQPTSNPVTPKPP
- test: ELISA
readout-type: optical density (OD)
Report the figure in OD without appending any unit label.

Here's what some known entries look like.
367_A10 (antibody, V domains shown, Group III) VH: EVQLLESGGGLVQPGGSLRLSCAASGFTFSSYGMNWVRQAPGKGLEWVAGINYNSGYTSYADSVKGRFTISRDNSKNTLYLQMNSLRAEDTAVYYCARGANWHDTHLDYWGQGTLVTVSS VL: DIQMTQSPSSLSASVGDRVTITCRASQSIITYVNWYQQKPGKAPKLLIYAATSLASGVPSRFSGSGSGTDFTLTISSLQPEDFATYYCQQSYDLPLTFGGGTKVEIK	1.89
374_B10 (antibody, V domains shown, Group III) VH: EVQLLESGGGLVQPGGSLRLSCAASGFTFSSYSMNWVRQAPGKGLEWVSSINYNSGYTSYADSVKGRFTISRDNSKNTLYLQMNSLRAEDTAVYYCARGANWHDTHLDYWGQGTLVTVSS VL: DIQMTQSPSSLSASVGDRVTITCRASQSILTYVNWYQQKPGKAPKLVIYAATSLASGVPSRFSGSGSGTDFTLTISSLQPEDFATYYCQQSYDTPLTFGGGTKVEIK	3.71

Next item in the queue.
# binder 373_F08 (antibody, V domains shown, Group III) VH: EVQLLESGGGLVQPGGSLRLSCAASGFTFSSYSMNWVRQAPGKGLEWVSGINYNGGYTSYADSVKGRFTISRDNSKNTLYLQMNSLRAEDTAVYYCARGANWHDTALDYWGQGTLVTVSS VL: DIQMTQSPSSLSASVGDRVTITCRASQSILTYLNWYQQKPGKAPKLLIYAATSRASGVPSRFSGSGSGTDFTLTISSLQPEDFATYYCQQSYDTPLTFGGGTKVEIK ; its optical density = 3.76
